The reported measurements were obtained from paper PMC2756588.

- TARGET: T1, Hof1, Q05080
- T1 sequence (Q05080 590-669, looked up): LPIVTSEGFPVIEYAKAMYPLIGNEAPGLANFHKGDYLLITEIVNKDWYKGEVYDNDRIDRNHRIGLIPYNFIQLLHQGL
- ASSAY_PROTOCOL: SPOT array
- COND: median of control spots 4086
# yes (1) = SPOT intensity below 4 (exclusive); no (0) = SPOT intensity at/above 4

Example cases with answers are listed next.
PPIPIVPSSPAPPLP yes (1)
MAMRPIPPLPTESEY no (0)
RSKRLFPVRPMATAH no (0)
VPVAPPPPPASLGQS yes (1)
PAPPPPPRASRPTPN yes (1)

Problem: # TODO verify SPOT intensity < 4 strictly for this binder: TSFKGRPKPPKTLKH
Solution: yes (1)
